assay: chemical genetic growth profiling, strain panel (AID 1159580);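 note: tested at 20 µM; growth read once vehicle control cultures reached saturation at 30 °C; 1 = growth at the plate median or of vehicle wells; lower values mean less growth of the strain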; settings: S. cerevisiae deletion strains, growth OD, locus YLR370C, strain arc18
Out of some 5,500 compounds screened, about 2,000 (36%) were called active. About 18% were inconclusive and are not listed. Cut-off read from the data, not from the text of the source: active = normalized growth mostly below about 0.91 (no sharp cut-off); inconclusive = no clear call, values can overlap the other calls; inactive = mostly above about 0.92. Some of the results follow.
Write down the outcome that applies. Available outcomes: active, inactive

Could you kindly confirm the outcome this assay logged for `O=C(/C=C/C=C/c1ccc2c(c1)OCO2)N1CCCCC1` ?
inactive

Record: `COc1ccc(-c2coc3c(OC)c(OC)cc(O)c3c2=O)cc1`
inactive

Record: CC(=O)O[C@]1(C(C)=O)CCC2C3C=C(C)C4=CC(=O)CCC4(C)C3CCC21C (stereo not given in full)
inactive

Record: CCC1(c2ccc(N)cc2)CCC(=O)NC1=O (stereo not given)
inactive

Record: CC(C)(CO)C(O)C(=O)NCCCO (stereo not given)
inactive

Record: `COc1ccc(-c2coc3c(O)c(OC)ccc3c2=O)cc1`
inactive

Record: `CC(C)N(C(=O)CCl)c1ccccc1`
inactive

Record: `CCCCCCCCCCCCCCCCOP(=O)([O-])OCC[N+](C)(C)C`
active

Record: `CCCCOc1ccc(C(=O)CCN2CCCCC2)cc1`
active

Record: `CCCCCCCC/C=C/CCCCCCCCOP(=O)([O-])OCC[N+](C)(C)C`
active

Record: CC(=O)[C@H]1CCC2C3C[C@H](C)C4=CC(=O)CC[C@]4(C)C3[C@@H](O)C[C@@]21C (stereo not given in full)
inactive

Record: `CCC1(c2ccccc2)C(=O)NCNC1=O`
inactive

Record: CCc1ccc(CCOc2ccc(CC3SC(=O)NC3=O)cc2)nc1 (stereo not given)
inactive

Record: `COc1ccc(-c2cc(=O)c3c(O)cc(OC)c(OC)c3o2)c(OC)c1`
inactive

Record: CC(=O)O[C@]1(C(C)=O)CCC2C3C=C(Cl)C4=CC(=O)CC[C@]4(C)C3CC[C@@]21C (stereo not given in full)
inactive

Record: `S=C=NCc1ccccc1`
active

Record: `CCCCOc1ccc(OCCCN2CCOCC2)cc1`
inactive

Record: `O=C(O)COc1cc(Cl)c(Cl)cc1Cl`
inactive

###

test: chemical genetic growth profiling, strain panel (AID 1159580);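 note: tested at 20 µM; growth read once vehicle control cultures reached saturation at 30 °C; 1 = growth at the plate median or of vehicle wells; lower values mean less growth of the strain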; conditions: S. cerevisiae deletion strains, growth OD, locus YER167W, strain BCK2, active compounds read low
The campaign covered roughly 5,500 compounds. About 2,000 (36%) were called active. Inconclusive results (about 18%) are left out. The list shows a part of the results.
METRIC NAME: normalized growth
Provide a numeric answer; units are not to be included.

Looking for the measured normalized growth of OCC(O)Cc1ccc2c(c1)OCO2 (configuration not stated) , can you help?
1.01

Record: `CC(=C(CCOP(=O)(O)O)SC(=O)c1ccccc1)N(C=O)Cc1cnc(C)nc1N`
1.01

Record: CCC1(c2ccc(N)cc2)CCC(=O)NC1=O (configuration not stated)
1

Record: CO[C@H]1C[C@H](O[C@H]2[C@H](C)[C@@H](OC3O[C@H](C)C[C@H](N(C)C)[C@H]3O)[C@@H](C)C[C@]3(CO3)C(=O)[C@H](C)[C@@H](O)[C@@H](C)[C@@H](C)OC(=O)[C@@H]2C)O[C@@H](C)[C@@H]1O (some centres not stated)
1.01

Record: `C[C@@H]1O[C@@H](O[C@H]2[C@@H](Oc3cc(O)c4c(c3)O[C@H](c3ccc(O)cc3)CC4=O)O[C@H](CO)[C@@H](O)[C@@H]2O)[C@H](O)[C@H](O)[C@H]1O`
1

Record: COc1ccc2c(c1)C1(C)CCC(=O)CC1CC2 (configuration not stated)
0.999

Record: `COc1ccc(C[C@H]2NC[C@H](O)[C@H]2OC(C)=O)cc1`
0.704

Record: `CC(=O)OCC(CCn1cnc2cnc(N)nc21)COC(C)=O`
0.989
